# Target Or Test System: Kallikrein (Homo sapiens)
# Test Name: Kallikrein inhibition assay (fluorometric, H-Pro-Phe-Arg-AMC substrate)
# Type: biochemical
# Measurement Context: 24° C, HEPES pH 7.5, 5% DMSO, fluorescence after ten minutes
Reported IC50 by item:
Please state the figure in µM; there is no need to write the unit.

// solved cases for IC50 follow
| Compound | Value Type | Value Observed |
| --- | --- | --- |
| NC(=O)c1ccc(NC(=O)C(OC(=O)CCOc2ccccc2)c2ccc(Br)cc2)cc1 (stereo not shown) [Compound (33)] | IC50 | 0.459 |
| COc1ccc(OC)c(C(=O)CCC(=O)OC(C(=O)NCc2cc(OC)c(OC)c(OC)c2)c2ccc(C(F)(F)F)cc2)c1 (stereo not shown) [Compound (34)] | IC50 | 0.731 |
| COc1ccc(NC(=O)C(OC(=O)CSc2ncccn2)c2ccc(Br)cc2)cc1OC (stereo not shown) [Compound (29)] | IC50 | 0.31 |

Now for another entry.
Item under review: COc1cc(CNC(=O)C(OC(=O)c2csc3cc4c(cc23)OC(C)(C)O4)c2ccc(Br)cc2)cc(OC)c1OC (stereo not shown) [Compound (36)] . Reported IC50?
3.67

----------
Reported IC50 by item:
# Target Or Test System: Kallikrein (Homo sapiens)
# Test Name: Kallikrein inhibition assay (fluorometric, H-Pro-Phe-Arg-AMC substrate)
# Format: biochemical
# Measurement Context: 24° C, HEPES pH 7.5, 5% DMSO, fluorescence after ten minutes
Please state the figure in µM; there is no need to write the unit.

// solved cases for IC50 follow
| Molecule | Value Type | Unit Abbrev | Value Observed |
| --- | --- | --- | --- |
| COc1cc(CNC(=O)C(OC(=O)CSc2ncccn2)c2cccc(C#N)c2)cc(OC)c1OC (stereo not shown) | IC50 | µM | 1.48 |
| COc1cccc(OCCC(=O)OC(C(=O)NCc2cc(OC)c(OC)c(OC)c2)c2cccc(C#N)c2)c1 (stereo not shown) | IC50 | µM | 1.69 |
| COC(=O)c1ccc(C(OC(=O)CCC(=O)c2ccccc2)C(=O)NCc2cc(OC)c(OC)c(OC)c2)cc1 (stereo not shown) | IC50 | µM | 0.442 |
| COc1cc(CNC(=O)C(OC(=O)Cc2c[nH]c3ccc(Br)cc23)c2ccc(Br)cc2)cc(OC)c1OC (stereo not shown) | IC50 | µM | 2.68 |
| COc1cc(CNC(=O)C(OC(=O)CSc2nccc(C)n2)c2cccc(C#N)c2)cc(OC)c1OC (stereo not shown) | IC50 | µM | 0.384 |
| COc1ccc(CC(=O)OC(C(=O)NC2CC2)c2ccc(C#N)cc2)cc1 (stereo not shown) | IC50 | µM | 0.391 |

Now for another entry.
Item under review: COc1cc(CNC(=O)C(OC(=O)CCC(=O)c2ccccc2)c2ccc(S(C)(=O)=O)cc2)cc(OC)c1OC (stereo not shown) . Reported IC50?
1.18

----------
# Target Or Test System: Kallikrein (Homo sapiens, UniProt P03952)
# Sequence (P03952 whole entry): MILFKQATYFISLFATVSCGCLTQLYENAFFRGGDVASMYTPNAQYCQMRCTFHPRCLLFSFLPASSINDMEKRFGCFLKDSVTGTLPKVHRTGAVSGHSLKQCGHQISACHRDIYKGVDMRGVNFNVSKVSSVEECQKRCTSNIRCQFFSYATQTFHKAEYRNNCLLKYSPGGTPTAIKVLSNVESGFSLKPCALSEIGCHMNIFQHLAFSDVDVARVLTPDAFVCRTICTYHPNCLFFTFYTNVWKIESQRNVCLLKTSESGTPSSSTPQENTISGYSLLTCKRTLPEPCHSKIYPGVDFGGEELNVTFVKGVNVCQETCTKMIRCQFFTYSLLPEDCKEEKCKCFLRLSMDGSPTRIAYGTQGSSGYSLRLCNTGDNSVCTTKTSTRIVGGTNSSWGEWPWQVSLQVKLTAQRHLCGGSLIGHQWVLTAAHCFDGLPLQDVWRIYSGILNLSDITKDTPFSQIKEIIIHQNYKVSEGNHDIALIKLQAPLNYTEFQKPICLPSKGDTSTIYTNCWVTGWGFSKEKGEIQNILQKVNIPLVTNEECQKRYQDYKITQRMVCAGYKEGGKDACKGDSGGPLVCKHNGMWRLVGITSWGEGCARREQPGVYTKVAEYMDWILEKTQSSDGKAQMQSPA
# Test Name: Kallikrein inhibition assay (fluorometric, H-Pro-Phe-Arg-AMC substrate)
# Format: biochemical
# Measurement Context: 24° C, HEPES pH 7.5, 5% DMSO, fluorescence after ten minutes
# Description: Kallikrein activity was assayed fluorometrically with an aminomethyl coumarin-containing (AMC-containing) substrate according to procedures described in Zimmerman et al., Proc. Natl. Acad. Sci. USA 75:750 (1978), the entire teachings of which are incorporated herein by reference. […] Fluorescence was read after ten minutes at 360 nm (activation wavelength) and 460 nm (emission wavelength).
Reported IC50 by item:
Please state the figure in µM; there is no need to write the unit.

// solved cases for IC50 follow
| Molecule | Value Type | Value Observed |
| --- | --- | --- |
| COc1ccc(OC)c(C(=O)CCC(=O)OC(C(=O)Nc2ccc(OC)c(OC)c2)c2cccc(C#N)c2)c1 (centres unmarked) [Compound (16)] | IC50 | 0.253 |
| COc1cc(CNC(=O)C(OC(=O)CCOc2ccccc2)c2cccc(C#N)c2)cc(OC)c1OC (centres unmarked) [Compound (15)] | IC50 | 0.577 |

Item under review: COc1cc(CNC(=O)C(OC(=O)CCC(=O)c2ccccc2)c2ccccc2)cc(OC)c1OC (centres unmarked) [Compound (12)] . Reported IC50?
0.737

Can you check COc1ccc(OC)c(C(=O)CCC(=O)OC(C(=O)NCc2cc(OC)c(OC)c(OC)c2)c2ccc(Br)cc2)c1 (centres unmarked) [Compound (26)] next?
0.191

Can you check N#Cc1ccc(C(OC(=O)CCC2CCCCC2)C(=O)NC2CC2)cc1 (centres unmarked) [Compound (3)] next?
1.06

Cited source for all entries: patent US20040044075A1
